inhibition for assorted compounds
target: Acyl-protein thioesterase 1 (Homo sapiens) (UniProt O75608); assay: LYPLA1 inhibitors, retest, confirmation, counter-screen for PME1 inhibitor project, biochemical, fluorescence polarization, FP-Rh probe ABPP (AID 2233); conditions: recombinant LYPLA1, FP-Rh probe fluorescence polarization; at 5.9 µM; hits give high values;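 also: loss of FP-Rh probe labeling of LYPLA1 seen as lower polarization; 0% = LYPLA1 with DMSO and 100% = wells lacking LYPLA1 enzyme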
Sequence (O75608 whole entry, looked up): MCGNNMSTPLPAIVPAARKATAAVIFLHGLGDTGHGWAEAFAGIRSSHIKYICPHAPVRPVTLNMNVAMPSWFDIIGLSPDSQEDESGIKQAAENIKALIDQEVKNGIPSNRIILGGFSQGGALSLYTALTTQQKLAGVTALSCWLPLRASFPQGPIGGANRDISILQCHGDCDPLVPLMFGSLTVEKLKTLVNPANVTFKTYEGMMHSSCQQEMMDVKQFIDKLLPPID
Some of the results follow.
Report the value in % with no unit label.

The following compounds have reported results that may help.
- COMPOUND: "COc1ccccc1C(=O)NC(CCSC)C(=O)N1CCN(C/C=C/c2ccccc2)CC1 (centres undefined)"
  U: "%"
  inhibition: 19.9
- COMPOUND: "CN(CCOc1ccccc1)C(=O)c1cc(COc2c(F)cccc2F)on1"
  U: "%"
  inhibition: 12.1
- COMPOUND: "CCOc1ccccc1N1CCN(C(=O)c2ccc3[nH]c(C)c(C)c3c2)CC1"
  U: "%"
  inhibition: 29.3

// below: inhibition requested for another compound
Data request: // inhibition lookup, key: COc1ccc(N2CC(C(=O)NCCN3C(=O)S/C(=C\c4cccnc4)C3=O)CC2=O)c(OC)c1 (centres undefined)
Data returned: 1.04

---

target: Acyl-protein thioesterase 1 (Homo sapiens); test: LYPLA1 inhibitors, retest, confirmation, counter-screen for PME1 inhibitor project, biochemical, fluorescence polarization, FP-Rh probe ABPP (AID 2233); settings: recombinant LYPLA1, FP-Rh probe fluorescence polarization; at 5.9 µM; hits give high values;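 also: loss of FP-Rh probe labeling of LYPLA1 seen as lower polarization; 0% = LYPLA1 with DMSO and 100% = wells lacking LYPLA1 enzyme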
The other results are listed elsewhere or left out.
PARAMETER: inhibition (%)
Report the value in % with no unit label.

The following molecules have reported results that may help.
- COMPOUND STRUCTURE STRING: "O=C(CCn1c(SCC(=O)c2ccccc2)nc2ccccc2c1=O)NCc1ccc(F)cc1"
  PARAMETER: "inhibition"
  MEAS VALUE: -4.57
- COMPOUND STRUCTURE STRING: "C=CCNC(=O)c1sc(SC)cc1-c1ccc(Cl)cc1"
  PARAMETER: "inhibition"
  MEAS VALUE: 23.5
- COMPOUND STRUCTURE STRING: "Cc1ccc(N2CCN(C3=NC(=O)/C(=C\\c4cccs4)S3)CC2)cc1"
  PARAMETER: "inhibition"
  MEAS VALUE: 37
- COMPOUND STRUCTURE STRING: "CCC(=C/c1sc2ccc3ccccc3c2[n+]1C)/C=C1\\Sc2ccc3ccccc3c2N1C"
  PARAMETER: "inhibition"
  MEAS VALUE: 78.8

// below: inhibition requested for another molecule
Data request: // inhibition lookup, key: Cc1ccc(S(=O)(=O)N2CCC(C(=O)N[C@@H](C)C(=O)NCc3ccco3)CC2)cc1
Data returned: 2.78
